- tgt: T1, human PD1 expressed on a cell surface (human, UniProt Q15116 25-288)
- T1 construct: whole, on cells; also called hPD1
- assay explanation: flow cytometry on OKT3-activated human T cells, CD4- cells
# EC50 per entry
Field: numeric (nM). Do not append units.

• anti-hPD1 antibody #2 (antibody, human IgG4, V domains shown, also called Anti-hPD1 #2; Anti-PD1 #2) VH: QVQLVQSGAEVKKPGASVKVSCKASGYTFTSYWMHWVRQAPGQGLEWMGEIDPYDSYTNYNQKFKGRVTMTVDKSTSTVYMELSSLRSEDTAVYYCARPGNTYGGMDYWGQGTLVTVSS VL: DIQMTQSPSSLSASVGDRVTITCRSSQSLFNSGNQKNYLAWYQQKPGKVPKLLIYGASTRDSGVPYRFSGSGSGTDFTLTISSLQPEDVATYYCQNDHYYPYTFGGGTKVEIK = 0.416
• anti-hPD1 antibody #13 (antibody, human IgG4, V domains shown, also called Anti-hPD1 #13) VH: QVQLVQSGAEVKKPGASVKVSCKASGYTFTSYWIHWVRQAPGQGLEWMGEIDPYDSYTNYNQKFKGRVTMTVDKSTNTVYMELSSLTSEDTAVYYCARPGLTYGGMDFWGQGTLVTVSS VL: DIQMTQSPSSLSASVGDRVTITCKSSQSLLNSGNQKNYLAWYQQKPGKPPKLLIYGASTRDSGVPAKFSGSGSGTDFTLTISSLQPEDVATYYCQNDHYYPYTFGGGTKVEIK = 1.46
• anti-hPD1 antibody #7 (antibody, human IgG4, V domains shown, also called Anti-hPD1 #7; Anti-PD1 #7) VH: QVQLVQSGAEVKKPGASVKVSCKASGYTFTNYWIHWVRQAPGQGLEWMGEIDPYDSYTNYNQKFKGRVTMTIDKSTNTVYMELSSLRSEDTAVYYCARPGLTYGGMDFWGQGTLVTVSS VL: DIVMTQSPDSLAVSLGERATINCRSSQSLFISGNQKNYLAWYQQKPGQPPKLLIYGASTRESGVPDRFSGSGSGTDFTLTISSLQAEDVAVYYCQNNHYYPYTFGGGTKVEIK = 0.569
• anti-hPD1 antibody #5 (antibody, human IgG4, V domains shown, also called Anti-hPD1 #5; Anti-PD1 #5) VH: QVQLVQSGAEVKKPGASVKVSCKASGYTFTNYWMHWVRQAPGQGLEWMGEIDPFDSYTNYNQKFKGRVTMTRDKSTSTVYMELSSLRSEDTAVYYCARPGFTYGGMDFWGQGTLVTVSS VL: DIQMTQSPSSLSASVGDRVTITCRSSQSLLNSGNQKNYLAWYQQKPGKLPKLLIYGASTRDSGVPSRFSGSGSGTDFTLTISSLQAEDVATYYCQNDHYYPYTFGGGTKVEIK = 1.12

binder anti-hPD1 antibody #10 (antibody, human IgG4, V domains shown, also called Anti-hPD1 #10; Anti-PD1 #10) VH: QVQLVQSGAEVKKPGASVKVSCKASGYTFTSYWMHWVRQAPGQGLEWMGEIDPFDSYTNYNQKFKGRVTMTIDKSTNTVYMELSSLGSEDTAVYYCARPGYTYGGMDFWGQGTLVTVSS VL: DIVMTQSPDSLAVSLGERATINCRSSQSLFISGNQKNYLAWYQQKPGQPPKLLIYGASTRDSGVPDRFSGSGSGTDFTLTISSLQAEDVAVYYCQNNHYYPYTFGGGTKVEIK , EC50 observed: 1.6

binder anti-hPD1 antibody #9 (antibody, human IgG4, V domains shown, also called Anti-hPD1 #9; Anti-PD1 #9) VH: QVQLVQSGAEVKKPGASVKVSCKASGYTFTSYWMHWVRQAPGQGLEWMGEIDPYDSYTNYNQKFKGRVTMTIDKSTSTVYMELSSLTSEDTAVYYCARPGFTYGGMDFWGQGTLVTVSS VL: DIVMTQSPDSLAVSLGERATINCRSSQSLLISGNQKNYLAWYQQKPGQPPKLLIYGASTRDSGVPDRFSGSGSGTDFTLTISSLQAEDVAVYYCQNNHYYPYTFGGGTKVEIK , EC50 observed: 1.48

binder anti-hPD1 antibody #1 (antibody, V domains shown, also called Anti-hPD1 #1; Anti-PD1 #1) VH: QVQLVQSGAEVKKPGASVKVSCKASGYTFTNYWIHWVRQAPGQGLEWMGEIDPYDSYTNYNQKFKGRVTMTVDKSTSTVYMELSSLRSEDTAVYYCARPGFTYGGMDFWGQGTLVTVSS VL: DIQMTQSPSSLSASVGDRVTITCKSSQSLFNSGNQKNYLAWYQQKPGKVPKLLIYGASTRDSGVPYRFSGSGSGTDFTLTISSLQPEDVATYYCQNDHYYPYTFGGGTKVEIKR , EC50 observed: 1.37

binder anti-hPD1 antibody #11 (antibody, human IgG4, V domains shown, also called Anti-hPD1 #11) VH: QVQLVQSGAEVKKPGASVKVSCKASGYTFTSYWIHWVRQAPGQGLEWMGEIDPSDSYTNYNQKFKGRVTMTGDTSTNTVYMELSSLTSEDTAVYYCARPGYTYGGMDFWGQGTLVTVSS VL: DIVMTQSPDSLAVSLGERATISCRSSQSLFISGNQKNYLAWYQQKPGQPPKLLIYGASTRDSGVPDRFSGSGSGTDFTLTISSLQAEDVAVYYCQNNHYYPYTFGGGTKVEIK , EC50 observed: 24.7

binder anti-hPD1 antibody #14 (antibody, human IgG4, V domains shown, also called Anti-hPD1 #14; Anti-PD1 #14) VH: QVQLVQSGAEVKKPGASVKVSCKASGYTFTNYWIHWVRQAPGQGLEWMGEIDPYDSYTNYNQKFKGRVTMTGDKSTSTVYMELSSLTSEDTAVYYCARPGYTYGGMDFWGQGTLVTVSS VL: DIQMTQSPSSLSASVGDRVTITCKSSQSLFNSGNQKNYLAWYQQKPGKLPKLLIYGASTRDSGVPSRFSGSGSGTDFTLTISSLQPEDVATYYCQNDHYYPYTFGGGTKVEIK , EC50 observed: 0.449
